These measurements were taken from patent US11345679B2.

Biological target: human FXIa protein (hFXIa) (Homo sapiens (Human))
Sequence (P03951 388-625): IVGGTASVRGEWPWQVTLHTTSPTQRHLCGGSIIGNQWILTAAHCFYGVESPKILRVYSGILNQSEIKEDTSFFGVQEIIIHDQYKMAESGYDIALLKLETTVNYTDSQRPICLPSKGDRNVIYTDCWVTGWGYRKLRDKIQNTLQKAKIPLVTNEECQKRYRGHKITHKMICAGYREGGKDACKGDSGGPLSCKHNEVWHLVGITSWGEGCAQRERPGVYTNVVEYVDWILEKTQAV
Sequence (P03951 19-387 partner): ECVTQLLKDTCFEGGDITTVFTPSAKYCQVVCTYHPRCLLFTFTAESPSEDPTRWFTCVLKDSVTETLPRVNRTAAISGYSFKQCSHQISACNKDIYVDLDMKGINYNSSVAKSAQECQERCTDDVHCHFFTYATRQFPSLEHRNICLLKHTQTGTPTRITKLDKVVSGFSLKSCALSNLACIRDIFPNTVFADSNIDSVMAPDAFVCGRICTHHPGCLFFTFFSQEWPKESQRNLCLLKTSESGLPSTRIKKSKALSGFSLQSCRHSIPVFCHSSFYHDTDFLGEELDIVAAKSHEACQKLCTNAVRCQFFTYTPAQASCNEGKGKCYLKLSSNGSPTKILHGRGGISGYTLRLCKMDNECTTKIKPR
pIC50: −log10 of the molar value.
Think of 8 as a floor: if pIC50 stands on it or above, it is Fulfilled; beneath it, Not fulfilled.

{"columns": ["molecule", "group.label"],
 "data": [
  ["CNC(=O)[C@@H]1[C@@H](Cc2ccnc(N)c2)C(=O)N1C(=O)N1CCCC(C2CCCCCCC2)C1 (some centres unmarked)", "Fulfilled"],
  ["Nc1cc(C[C@H]2C(=O)N(C(=O)N3CCC[C@H](c4ccccc4)C3)[C@@H]2C(=O)O)ccn1", "Fulfilled"],
  ["CNC(=O)[C@@H]1[C@@H](Cc2ccnc(N)c2)C(=O)N1C(=O)N1CCCC(c2ccccc2)C1 (some centres unmarked)", "Fulfilled"],
  ["CNC(=O)[C@@H]1[C@@H](Cc2ccnc(N)c2)C(=O)N1C(=O)N1CCCC(c2ccc3c(c2)OC(F)(F)O3)C1 (some centres unmarked)", "Fulfilled"],
  ["N#Cc1ccc2c(c1)CCN2C(=O)N1C(=O)[C@H](Cc2ccnc(N)c2)[C@H]1C(=O)O", "Not fulfilled"]
]}

Let us examine a further case.
input: # bool: pIC50 of `CN(C)C(=O)[C@@H]1[C@@H](Cc2ccnc(N)c2)C(=O)N1C(=O)N1CCC[C@H](c2ccccc2)C1` >= 8
output: Fulfilled
